# methodDescription: Plasma pharmacokinetics of CR665 after single IV infusion in human subjects
# assayConditions: female, human, plasma, iv, 0.06 mg/kg, Vz, females, 5-minute IV infusion, geometric mean
Structures can show the parent of a compound that is named as a salt. Non-standard residues stand in square brackets, D forms with d. Residues, ends and D or L forms follow the SMILES beside them. *: point of attachment. NH(4-picolyl) = c1cc(CN*)ccn1; dNle = CCCC[C@@H](N)C(=O)O
readoutKind: Vd (L)
One number for each entry, in L.

Challenge: Give its Vd value. Item: CCCC[C@@H](NC(=O)[C@@H](Cc1ccccc1)NC(=O)[C@H](N)Cc1ccccc1)C(=O)N[C@H](CCCNC(=N)N)C(=O)NCc1ccncc1 [CR665, acetate salt] (H-[dF][dF][dNle][dR]-{NH(4-picolyl)})
Response given: 39.2

* * *

# methodDescription: Plasma pharmacokinetics of CR665 after single IV infusion in human subjects
# assayConditions: male, human, plasma, iv, 0.06 mg/kg, MRTint, males, 5-minute IV infusion, geometric mean
Structures can show the parent of a compound that is named as a salt. Non-standard residues stand in square brackets, D forms with d. Residues, ends and D or L forms follow the SMILES beside them. *: point of attachment. NH(4-picolyl) = c1cc(CN*)ccn1; dNle = CCCC[C@@H](N)C(=O)O
readoutKind: MRT (min)
Numbers only, in min.

Challenge: Need MRT of CCCC[C@@H](NC(=O)[C@@H](Cc1ccccc1)NC(=O)[C@H](N)Cc1ccccc1)C(=O)N[C@H](CCCNC(=N)N)C(=O)NCc1ccncc1 [CR665, acetate salt] (H-[dF][dF][dNle][dR]-{NH(4-picolyl)}) , thanks.
Response given: 30.1

* * *

# methodDescription: Plasma pharmacokinetics of CR665 after single IV infusion in human subjects
# assayConditions: male, human, plasma, iv, 0.09 mg/kg, Cmax, males, 5-minute IV infusion, geometric mean
Structures can show the parent of a compound that is named as a salt. Non-standard residues stand in square brackets, D forms with d. Residues, ends and D or L forms follow the SMILES beside them. *: point of attachment. NH(4-picolyl) = c1cc(CN*)ccn1; dNle = CCCC[C@@H](N)C(=O)O
readoutKind: Cmax
Reply with a number, then the unit it belongs to.

Challenge: Which measured Cmax value corresponds to CCCC[C@@H](NC(=O)[C@@H](Cc1ccccc1)NC(=O)[C@H](N)Cc1ccccc1)C(=O)N[C@H](CCCNC(=N)N)C(=O)NCc1ccncc1 [CR665, acetate salt] (H-[dF][dF][dNle][dR]-{NH(4-picolyl)}) ?
Response given: 783 ng/mL

* * *

# methodDescription: Plasma pharmacokinetics of CR665 after single IV infusion in human subjects
# assayConditions: male, human, plasma, intravenous, t1/2, geometric least squares mean, males, 5-minute infusion, Parts A & B
Counter-ions that a name gives are not always drawn. Non-standard residues stand in square brackets, D forms with d. Residues, ends and D or L forms follow the SMILES beside them. *: point of attachment. NH(4-picolyl) = c1cc(CN*)ccn1; dNle = CCCC[C@@H](N)C(=O)O
readoutKind: half-life (h)
One number for each entry, in h.

Challenge: # query: half-life of entry CCCC[C@@H](NC(=O)[C@@H](Cc1ccccc1)NC(=O)[C@H](N)Cc1ccccc1)C(=O)N[C@H](CCCNC(=N)N)C(=O)NCc1ccncc1 [CR665, acetate salt] (H-[dF][dF][dNle][dR]-{NH(4-picolyl)})
Response given: 1.28
